TEST_METHOD_NOTES: Cytotoxicity against hamster BHK-21 cells assessed as cell growth inhibition measured after 48 hrs by MTT assay
Format: toxicity, cell-based, Mesocricetus auratus
METRIC_NAME: CC50 at 48 h

**Query** Item under review: CCC(/C(C)=C/c1cc(OC)c(OC)cc1OC)c1cc(OC)c(OC)cc1OC (stereo unspecified) . Reported CC50 at 48 h?
**Result** > 80 µM

---

TEST_METHOD_NOTES: Cytotoxicity against monkey LLC-MK2 cells assessed as reduction in cell viability measured after 48 hrs by MTT assay
Type: toxicity, cell-based, Macaca mulatta
TEST_PARAMETERS: rhesus monkey
METRIC_NAME: CC50 at 48 h (µM)
Write the number in µM without appending the unit.

**Query** Which measured CC50 at 48 h value corresponds to CC(=O)N[C@@H](C(=O)O)C(C)(C)SN=O ?
**Result** 200

---

ASSAY_SYSTEM: Nonstructural protein 5 (Dengue virus)
TEST_METHOD_NOTES: Inhibition of Dengue virus NS5/RNA-dependent RNA polymerase
METRIC_NAME: pIC50
// pIC50: -log10(molar conc.)

**Query** Entry CC(C)OC(=O)[C@H](C)N[P@](=O)(OC[C@H]1O[C@@H](n2ccc(=O)[nH]c2=O)[C@](C)(F)[C@@H]1O)Oc1ccccc1 : reported pIC50 = ?
**Result** 4.83

---

Recorded measurements of IC50, one per entry
ASSAY_SYSTEM: Nonstructural protein 5 (Dengue virus, UniProt V5TFZ2)
Sequence (V5TFZ2 whole entry): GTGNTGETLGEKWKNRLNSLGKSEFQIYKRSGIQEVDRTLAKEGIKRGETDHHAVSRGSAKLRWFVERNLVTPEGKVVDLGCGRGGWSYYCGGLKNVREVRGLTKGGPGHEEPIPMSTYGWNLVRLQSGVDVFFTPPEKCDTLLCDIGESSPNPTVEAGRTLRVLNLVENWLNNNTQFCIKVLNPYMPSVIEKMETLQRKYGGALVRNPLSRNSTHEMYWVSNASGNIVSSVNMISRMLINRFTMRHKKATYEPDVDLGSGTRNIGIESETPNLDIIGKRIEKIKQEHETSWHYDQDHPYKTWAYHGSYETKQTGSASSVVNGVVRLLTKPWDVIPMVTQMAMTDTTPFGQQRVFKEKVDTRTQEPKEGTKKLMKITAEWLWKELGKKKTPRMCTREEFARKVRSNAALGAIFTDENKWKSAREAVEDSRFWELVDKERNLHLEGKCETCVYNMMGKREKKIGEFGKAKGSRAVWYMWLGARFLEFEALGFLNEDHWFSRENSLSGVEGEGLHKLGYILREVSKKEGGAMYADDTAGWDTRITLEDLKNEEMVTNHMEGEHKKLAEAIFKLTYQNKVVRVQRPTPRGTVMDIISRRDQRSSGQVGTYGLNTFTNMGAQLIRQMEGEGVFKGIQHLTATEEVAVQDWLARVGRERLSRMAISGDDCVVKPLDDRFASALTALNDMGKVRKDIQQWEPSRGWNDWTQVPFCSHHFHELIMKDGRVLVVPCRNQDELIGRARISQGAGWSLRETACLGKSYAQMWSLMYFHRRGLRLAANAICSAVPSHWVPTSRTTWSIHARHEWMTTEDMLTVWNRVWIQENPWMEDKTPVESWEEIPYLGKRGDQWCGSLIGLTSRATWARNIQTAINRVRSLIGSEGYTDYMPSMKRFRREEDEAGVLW
TEST_METHOD_NOTES: Inhibition of DENV His-tagged recombinant NS5/RNA-dependent RNA polymerase
Report the figure along with its unit, number first.

STRUCTURE_SMILES: Nc1cc(C(F)(F)F)ccc1NC(=O)Nc1ccc(S(=O)(=O)Nc2ccc(C(=O)O)cc2)cc1
ASSAY_SYSTEM: Nonstructural protein 5 (Dengue virus, UniProt V5TFZ2)
IC50: 150 µM
--
STRUCTURE_SMILES: Nc1cc(C(F)(F)F)ccc1NC(=O)Nc1cccc(S(=O)(=O)Nc2ccc(C(=O)O)cc2)c1
ASSAY_SYSTEM: Nonstructural protein 5 (Dengue virus, UniProt V5TFZ2)
IC50: 150 µM

Turning now to a further record.
**Query** Given the entry CC(=O)N[C@@H](C(=O)O)C(C)(C)SN=O , what IC50 was observed with Nonstructural protein 5 (Dengue virus, UniProt V5TFZ2)?
**Result** 150 µM

---

TEST_METHOD_NOTES: Inhibition of Dengue virus 3 nucleoside-2'O-methyltransferase
Set-up: species or system dengue virus type 3
METRIC_NAME: pIC50
Convention used: pIC50 is expressed as -log10 of the molar concentration.

**Query** Look at this compound and give its reported pIC50. NC(=O)c1ncn([C@@H]2O[C@H](COP(=O)(O)OP(=O)(O)OP(=O)(O)O)[C@@H](O)[C@H]2O)n1
**Result** 4.00

---

TEST_METHOD_NOTES: Inhibition of DENV RNA-dependent RNA polymerase activity
Set-up: species or system Dengue virus
METRIC_NAME: pIC50
Please keep in mind that pIC50 is minus log10 of the molar concentration; only the number is needed.

**Query** # get_value(readout='pIC50', item= C#C[C@@]1(O)[C@H](OC(=O)C(C)C)[C@@H](COC(=O)C(C)C)O[C@H]1n1cc(C(N)=O)c2c(N)ncnc21 )
**Result** 7.00

---

TEST_METHOD_NOTES: Inhibition of DENV-2 NS5 polymerase incubated for 1 hr by fluorescence based analysis
Design: species or system dengue virus type 2
METRIC_NAME: IC50 (nM)
Use nM as the unit, but write only the number.

**Query** Name the reported IC50 value associated with the molecule COc1cc(C)c(C(=O)NS(=O)(=O)c2cccc3cccnc23)cc1-c1ccc(C#CCO)s1
**Result** 1900

---

ASSAY_SYSTEM: Nonstructural protein 5 (Dengue virus)
TEST_METHOD_NOTES: Inhibition of DENV/NS5 RNA-dependent RNA polymerase
METRIC_NAME: IC50 (nM)
Report as a plain number; the unit nM is understood.

COMPOUND: C[C@@H]1O[C@@H](Oc2c(-c3ccc(O)c(O)c3)oc3cc(O)cc(O)c3c2=O)[C@H](O)[C@H](O)[C@H]1O
MEASUREMENT_UNIT: nM
IC50: 2100

COMPOUND: O=c1c(O[C@@H]2O[C@@H](CO)[C@H](O)[C@H]2O)c(-c2ccc(O)c(O)c2)oc2cc(O)cc(O)c12
MEASUREMENT_UNIT: nM
IC50: 1700

COMPOUND: C[C@@H]1O[C@@H](OC[C@H]2O[C@@H](Oc3c(-c4ccc(O)c(O)c4)oc4cc(O)cc(O)c4c3=O)[C@H](O)[C@@H](O)[C@@H]2O)[C@H](O)[C@H](O)[C@H]1O
MEASUREMENT_UNIT: nM
IC50: 2100

// below: IC50 requested for another compound
**Query** So what's the measured IC50 for this one? O=c1c(O)c(-c2ccc(O[C@@H]3O[C@H](CO)[C@@H](O)[C@H](O)[C@H]3O)c(O)c2)oc2cc(O)cc(O)c12 [SPIRAEOSIDE]
**Result** 1900

---

ASSAY_SYSTEM: Nonstructural protein 5 (Dengue virus)
TEST_METHOD_NOTES: Inhibition of DENV C-terminal histidine-tagged NS5/RNA-dependent RNA polymerase
METRIC_NAME: pIC50
Scale note: pIC50 = -log10(concentration in M).

STRUCTURE_SMILES: O=c1cc(-c2ccc(Oc3c(O)cc4oc(-c5ccc(O)cc5)cc(=O)c4c3O)cc2)oc2cc(O)cc(O)c12
ASSAY_SYSTEM: Nonstructural protein 5 (Dengue virus)
pIC50: 6.59

Next up:
**Query** Tell me the measured pIC50 of O=c1cc(-c2ccc(O)c(-c3c(O)cc4oc(-c5ccc(O)cc5)cc(=O)c4c3O)c2)oc2cc(O)cc(O)c12 , please.
**Result** 6.48

---

TEST_METHOD_NOTES: Inhibition of DENV RNA N7 methyltransferase
Design: species or system Dengue virus
METRIC_NAME: pIC50
pIC50 (log units): -log10 of the concentration in mol/L.

**Query** Fill in the blank: the reported pIC50 of CCC(/C(C)=C/c1cc(OC)c(OC)cc1OC)c1cc(OC)c(OC)cc1OC (stereo unspecified) is ____.
**Result** 5.35
